System: protein sample
Test: Protein quality control screen: melting point temperature vs pH and NaCl concentration
Format: physicochemical
Settings: pH 5; NaCl Concentration 1.75

# COMPOUND, protein melting point temperature / °C
measured = [
    ("[Cl-].[Na+] [sodium chloride]", 76.5),
]

* * *

Tested on: protein sample
Test: Protein quality control screen: melting point temperature vs pH and NaCl concentration
Type: physicochemical
Settings: pH 8.5; NaCl Concentration 0.25
OBSERVABLE: protein melting point temperature

# MOLECULE, VALUE_OBSERVED
data = [
    ("[Cl-].[Na+] [sodium chloride]", "75.5 °C"),
]

* * *

Tested on: protein sample
Test: Protein quality control screen: melting point temperature vs pH and NaCl concentration
Assay type: physicochemical
Conditions: pH 6; NaCl Concentration 1.75

# COMPOUND, protein melting point temperature [°C]
rows = [
    ("[Cl-].[Na+] [sodium chloride]", 78),
]

* * *

Tested on: protein sample
Assay: Protein quality control screen: melting point temperature vs pH and NaCl concentration
Format: physicochemical
Settings: pH 7.5; NaCl Concentration 2
OBSERVABLE: protein melting point temperature (°C)

# COMPOUND, TEST_SYSTEM, OBSERVABLE, VALUE_OBSERVED
records = [
    ("[Cl-].[Na+] [sodium chloride]", "protein sample", "protein melting point temperature", 75),
]

* * *

System: protein sample
Assay: Protein quality control screen: melting point temperature vs pH and NaCl concentration
Format: physicochemical
Settings: pH 7; NaCl Concentration 0.5
OBSERVABLE: protein melting point temperature (°C)

# COMPOUND, OBSERVABLE, VALUE_UNIT, VALUE_OBSERVED
data = [
    ("[Cl-].[Na+] [sodium chloride]", "protein melting point temperature", "°C", 77),
]

* * *

Test system: protein sample
Test: Protein quality control screen: melting point temperature vs pH and NaCl concentration
Assay type: physicochemical
Conditions: pH 8.5; NaCl Concentration 2

# COMPOUND, TEST_SYSTEM, protein melting point temperature / °C
records = [
    ("[Cl-].[Na+] [sodium chloride]", "protein sample", 74.5),
]

* * *

System: protein sample
Experiment: Protein quality control screen: melting point temperature vs pH and NaCl concentration
Assay type: physicochemical
Settings: pH 8.5; NaCl Concentration 0.75

# COMPOUND, protein melting point temperature (°C)
measured = [
    ("[Cl-].[Na+] [sodium chloride]", 77),
]

* * *

System: protein sample
Assay: Protein quality control screen: melting point temperature vs pH and NaCl concentration
Assay type: physicochemical
Conditions: pH 6; NaCl Concentration 0.25
Source text: In one embodiment, the present invention contemplates a method comprising a protein quality control screen. Although it is not necessary to understand the mechanism of an invention, it is believed that a quality control screen may be used to analyze: i) comparison of protein state prior to storage and post storage; ii) protein synthesis/purification lot-to-lot comparison; and iii) protein synthesis/purification batch testing. […]

# COMPOUND, VALUE_UNIT, protein melting point temperature
measured = [
    ("[Cl-].[Na+] [sodium chloride]", "°C", 76),
]

* * *

System: protein sample
Test: Protein quality control screen: melting point temperature vs pH and NaCl concentration
Format: physicochemical
Conditions: pH 8; NaCl Concentration 1.75
OBSERVABLE: protein melting point temperature (°C)

# MOLECULE, TEST_SYSTEM, VALUE_OBSERVED
measured = [
    ("[Cl-].[Na+] [sodium chloride]", "protein sample", 75),
]

* * *

System: protein sample
Assay: Protein quality control screen: melting point temperature vs pH and NaCl concentration
Format: physicochemical
Settings: pH 7.5; NaCl Concentration 1.5

# MOLECULE, VALUE_UNIT, protein melting point temperature
records = [
    ("[Cl-].[Na+] [sodium chloride]", "°C", 76),
]

* * *

Tested on: protein sample
Test: Protein quality control screen: melting point temperature vs pH and NaCl concentration
Format: physicochemical
Details: pH 5.5; NaCl Concentration 0.25

# COMPOUND, VALUE_UNIT, protein melting point temperature
data = [
    ("[Cl-].[Na+] [sodium chloride]", "°C", 75),
]

* * *

Test system: protein sample
Assay: Protein quality control screen: melting point temperature vs pH and NaCl concentration
Assay type: physicochemical
Details: pH 9; NaCl Concentration 0.125

# COMPOUND, protein melting point temperature, °C
data = [
    ("[Cl-].[Na+] [sodium chloride]", 75),
]

* * *

Test system: protein sample
Assay: Protein quality control screen: melting point temperature vs pH and NaCl concentration
Type: physicochemical
Conditions: pH 9; NaCl Concentration 1.75

# MOLECULE, TEST_SYSTEM, protein melting point temperature
measured = [
    ("[Cl-].[Na+] [sodium chloride]", "protein sample", "74.5 °C"),
]

* * *

Test system: protein sample
Assay: Protein quality control screen: melting point temperature vs pH and NaCl concentration
Format: physicochemical
Conditions: pH 7.5; NaCl Concentration 1.75

# COMPOUND, protein melting point temperature / °C
measured = [
    ("[Cl-].[Na+] [sodium chloride]", 76),
]

* * *

System: protein sample
Assay: Protein quality control screen: melting point temperature vs pH and NaCl concentration
Format: physicochemical
Conditions: pH 5.5; NaCl Concentration 1
Text: In one embodiment, the present invention contemplates a method comprising a protein quality control screen. Although it is not necessary to understand the mechanism of an invention, it is believed that a quality control screen may be used to analyze: i) comparison of protein state prior to storage and post storage; ii) protein synthesis/purification lot-to-lot comparison; and iii) protein synthesis/purification batch testing. […]

# COMPOUND, protein melting point temperature / °C
rows = [
    ("[Cl-].[Na+] [sodium chloride]", 76.5),
]

* * *

System: protein sample
Test: Protein quality control screen: melting point temperature vs pH and NaCl concentration
Format: physicochemical
Conditions: pH 6; NaCl Concentration 2

# COMPOUND, VALUE_UNIT, protein melting point temperature
measured = [
    ("[Cl-].[Na+] [sodium chloride]", "°C", 77.5),
]

* * *

Test system: protein sample
Assay: Protein quality control screen: melting point temperature vs pH and NaCl concentration
Assay type: physicochemical
Details: pH 7; NaCl Concentration 1.75
Source text: In one embodiment, the present invention contemplates a method comprising a protein quality control screen. Although it is not necessary to understand the mechanism of an invention, it is believed that a quality control screen may be used to analyze: i) comparison of protein state prior to storage and post storage; ii) protein synthesis/purification lot-to-lot comparison; and iii) protein synthesis/purification batch testing. […]

# MOLECULE, VALUE_UNIT, protein melting point temperature
data = [
    ("[Cl-].[Na+] [sodium chloride]", "°C", 77),
]

* * *

Test system: protein sample
Test: Protein quality control screen: melting point temperature vs pH and NaCl concentration
Type: physicochemical
Settings: pH 5.5; NaCl Concentration 0.5
Text: In one embodiment, the present invention contemplates a method comprising a protein quality control screen. Although it is not necessary to understand the mechanism of an invention, it is believed that a quality control screen may be used to analyze: i) comparison of protein state prior to storage and post storage; ii) protein synthesis/purification lot-to-lot comparison; and iii) protein synthesis/purification batch testing. […]

# COMPOUND, VALUE_UNIT, protein melting point temperature
data = [
    ("[Cl-].[Na+] [sodium chloride]", "°C", 75),
]

* * *

Tested on: protein sample
Assay: Protein quality control screen: melting point temperature vs pH and NaCl concentration
Format: physicochemical
Conditions: pH 8; NaCl Concentration 0.5

# COMPOUND, protein melting point temperature, °C
rows = [
    ("[Cl-].[Na+] [sodium chloride]", 76.5),
]

* * *

System: protein sample
Assay: Protein quality control screen: melting point temperature vs pH and NaCl concentration
Type: physicochemical
Settings: pH 6; NaCl Concentration 1

# COMPOUND, protein melting point temperature [°C]
records = [
    ("[Cl-].[Na+] [sodium chloride]", 77),
]

* * *

Tested on: protein sample
Assay: Protein quality control screen: melting point temperature vs pH and NaCl concentration
Assay type: physicochemical
Conditions: pH 9; NaCl Concentration 0.25

# COMPOUND, protein melting point temperature / °C
rows = [
    ("[Cl-].[Na+] [sodium chloride]", 75),
]

* * *

System: protein sample
Assay: Protein quality control screen: melting point temperature vs pH and NaCl concentration
Format: physicochemical
Details: pH 5; NaCl Concentration 0.75
OBSERVABLE: protein melting point temperature (°C)

# COMPOUND, TEST_SYSTEM, VALUE_OBSERVED
records = [
    ("[Cl-].[Na+] [sodium chloride]", "protein sample", 76),
]

* * *

Test system: protein sample
Test: Protein quality control screen: melting point temperature vs pH and NaCl concentration
Type: physicochemical
Conditions: pH 7.5; NaCl Concentration 1.25
OBSERVABLE: protein melting point temperature (°C)

# MOLECULE, OBSERVABLE, VALUE_UNIT, VALUE_OBSERVED
records = [
    ("[Cl-].[Na+] [sodium chloride]", "protein melting point temperature", "°C", 76.5),
]

Data provenance: patent US11001872B2
